# protocolDescription: The drug is tested on Dorea formicigenerans strain: ATCC27755 for biotransformation. The drug concentrations were measured before and after a 12-h incubation by liquid-chromatography-coupled mass spectrometry (LC–MS)
# measurementConditions: 2 µM
endpointName: Bacterial Biotransformation

Completed entries (count: 4):
compound	measurement
CC(=O)OCC(=O)[C@@]1(O)[C@@H](C)C[C@H]2[C@@H]3CCC4=CC(=O)C=C[C@]4(C)[C@@]3(F)[C@@H](O)C[C@@]21C [BETAMETHASONE ACETATE]	Compound NOT metabolized
CC(CN1c2ccccc2Sc2ccccc21)N(C)C (stereo not drawn)	Compound NOT metabolized
Cc1ccc(NC(=O)c2ccc(CN3CCN(C)CC3)cc2)cc1Nc1nccc(-c2cccnc2)n1	Compound NOT metabolized
CCCC(=O)Nc1ccc(OCC(O)CNC(C)C)c(C(C)=O)c1 (stereo not drawn)	Compound NOT metabolized

Incoming: Which Bacterial Biotransformation is reported for this compound? CCCC1O[C@@H]2C[C@H]3[C@@H]4CCC5=CC(=O)C=C[C@]5(C)[C@H]4[C@@H](O)C[C@]3(C)[C@]2(C(=O)CO)O1 (stereo partly drawn) [BUDESONIDE]
Outgoing: Compound NOT metabolized

Incoming: Next up: CNCC[C@H](Oc1cccc2ccccc12)c1cccs1
Outgoing: Compound NOT metabolized

Incoming: Next up: Cc1ccc(S(=O)(=O)NC(=O)NN2CC3CCCC3C2)cc1 (stereo not drawn) [GLICLAZIDE]
Outgoing: Compound NOT metabolized

====

# measurementConditions: anaerostipes sp., 12 h, 2 µM
# Description: The drug is tested on Anaerostipes sp. strain: fecal isolate for biotransformation. The drug concentrations were measured before and after a 12-h incubation by liquid-chromatography-coupled mass spectrometry (LC–MS)
endpointName: Bacterial Biotransformation

Completed entries (count: 5):
compound	measurement
C[C@@H]1CC[C@H]2[C@@H](C)C(=O)O[C@@H]3O[C@@]4(C)CC[C@@H]1[C@]32OO4	Compound metabolized
CCC(=O)NCC[C@@H]1CCc2ccc3c(c21)CCO3	Compound NOT metabolized
CCN(CC)CCOC(=O)C1(C2CCCCC2)CCCCC1	Compound NOT metabolized
CN(C/C=C/C#CC(C)(C)C)Cc1cccc2ccccc12	Compound NOT metabolized
CN1CCN(C(=O)O[C@H]2c3nccnc3C(=O)N2c2ccc(Cl)cn2)CC1	Compound NOT metabolized

Incoming: Which Bacterial Biotransformation is reported for this compound? CCOc1ccccc1OCCN[C@H](C)Cc1ccc(OC)c(S(N)(=O)=O)c1.Cl [TAMSULOSIN HYDROCHLORIDE]
Outgoing: Compound NOT metabolized

Incoming: Next up: COC(=O)[C@H]1[C@H]2C[C@@H]3c4[nH]c5cc(OC)ccc5c4CCN3C[C@H]2C[C@@H](OC(=O)c2cc(OC)c(OC)c(OC)c2)[C@@H]1OC
Outgoing: Compound NOT metabolized

Incoming: Next up: CC(CN(C)C)CN1c2ccccc2CCc2ccccc21.O=C(O)/C=C\C(=O)O (centres undefined) [TRIMIPRAMINE MALEATE]
Outgoing: Compound NOT metabolized

Incoming: Next up: CCOC(=O)[C@H](CCc1ccccc1)N[C@@H](C)C(=O)N1[C@H](C(=O)O)C[C@H]2CCCC[C@@H]21
Outgoing: Compound NOT metabolized

Incoming: Next up: COC1=C(OC)C(=O)C(CCCCCCCCCCO)=C(C)C1=O
Outgoing: Compound metabolized

Incoming: Next up: CCC(C)n1ncn(-c2ccc(N3CCN(c4ccc(OCC5COC(Cn6cncn6)(c6ccc(Cl)cc6Cl)O5)cc4)CC3)cc2)c1=O (centres undefined)
Outgoing: Compound NOT metabolized

Incoming: Next up: OCCOCCN1CCN(C2=Nc3ccccc3Sc3ccccc32)CC1
Outgoing: Compound NOT metabolized

Incoming: Next up: CC(CN1c2ccccc2Sc2ccccc21)N(C)C (centres undefined)
Outgoing: Compound NOT metabolized

Incoming: Next up: CN(C)CCc1c[nH]c2ccc(CS(=O)(=O)N3CCCC3)cc12
Outgoing: Compound NOT metabolized

Incoming: Next up: CN(C)CCOC(C)(c1ccccc1)c1ccccn1.O=C(O)CCC(=O)O (centres undefined) [DOXYLAMINE SUCCINATE]
Outgoing: Compound NOT metabolized

Incoming: Next up: CC(=O)Oc1ccc(C(c2ccc(OC(C)=O)cc2)c2ccccn2)cc1
Outgoing: Compound metabolized

Incoming: Next up: CN(C)CCC=C1c2ccccc2COc2ccccc21 [DOXEPIN]
Outgoing: Compound NOT metabolized

Incoming: Next up: Cc1cc2c(s1)Nc1ccccc1N=C2N1CCN(C)CC1
Outgoing: Compound NOT metabolized

Cited source: ChEMBL document CHEMBL5303573
